Where these numbers come from: paper PMC11463774

Target: T1, His6-ZZ-Nmd4 FL (Saccharomyces cerevisiae, UniProt Q12129 1-218)
T1 sequence: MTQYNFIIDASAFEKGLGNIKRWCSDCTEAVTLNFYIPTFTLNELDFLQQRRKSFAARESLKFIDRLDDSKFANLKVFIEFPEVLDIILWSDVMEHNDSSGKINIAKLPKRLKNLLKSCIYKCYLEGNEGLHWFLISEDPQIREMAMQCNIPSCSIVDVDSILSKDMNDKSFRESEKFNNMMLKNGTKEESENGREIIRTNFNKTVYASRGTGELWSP
Assay: ITC; 5 mM Mg2+; ITC: 100 mM Bis-Tris pH 6.5, 133 mM NaCl, 5 mM MgCl2, 5 mM 2-mercaptoethanol, 20 C; protein 20-30 uM in cell titrated with 230-280 uM RNA
Conditions: protein: recombinant; tags: N-terminal His6-ZZ (3C cleavable, kept for ITC); single strand
Reported Endpoint: Kd (µM)
Give a bare numeral; the unit µM is implied.

UUUUUUUUUUUUUUUUUUUUUUUUUUUUUU (ssRNA) [RNA poly(U)30] yielded Kd of 8.1
